Test system: MALME-3M melanoma
experiment: NCI-60 one-dose screen, 48 h (100 = growth as untreated, 0 = no growth, -100 = all killed)
experimental-parameters: 10 µM unless noted
This is part of a sample that, as a whole, favours compounds with a hit. Of some 83,000 tested, about 20% had one in any assay.

{"molecule": "O=Nc1ccc(O)c(=O)cc1", "units": "%", "growth": -4.09}
{"molecule": "O=C1OCCCCCCCCCC#Cc2ccccc21", "units": "%", "growth": 146}
{"molecule": "CN(CC(=O)Nc1nc2ccccc2[nH]1)S(=O)(=O)c1ccc(Cl)cc1", "units": "%", "growth": 100}
{"molecule": "CCCCCCCCCCCCNc1ncnc2[nH]ncc12", "units": "%", "growth": 84.7}
{"molecule": "COc1ccc(C2=NNC(c3cc(Cc4ccc(O)c(C5CC(c6ccc(OC)cc6)=NN5)c4)ccc3O)C2)cc1 (stereo not drawn)", "units": "%", "growth": 78.9}
{"molecule": "NNC(=O)NO", "units": "%", "growth": 98.6}
{"molecule": "COc1ccc(OC)c2c1[nH]c(=O)c1c3ccccc3cn21", "units": "%", "growth": -89.4}
{"molecule": "Cc1ccc([N+](=O)[O-])cc1NC(=O)Nc1cccc(F)c1", "units": "%", "growth": 99.6}
{"molecule": "CC(=O)c1nc2ccccc2n1CCn1cc(CC(N)C(=O)O)c2ccccc21 (stereo not drawn)", "units": "%", "growth": 100}
{"molecule": "Cc1c(C(N)=O)sc2nc(SCC(=O)Nc3ccc(Cl)cc3)n(-c3ccccc3)c(=O)c12", "units": "%", "growth": 159}
{"molecule": "CCOC(=O)C1=C(C)N2C(=NC3=C(CCC/C3=C\\c3ccc(Cl)cc3)C2c2ccc(Cl)cc2)S1 (stereo not drawn)", "units": "%", "growth": 77}
{"molecule": "Cc1c(C(N)=O)sc2ncn(Cc3ccccc3)c(=O)c12", "units": "%", "growth": 120}
{"molecule": "O=C(C=C=Nc1ccccc1)C(=O)N=C=Cc1ccccc1", "units": "%", "growth": -20.9}
{"molecule": "Nc1nc(N)c([N+](=O)[O-])c(=O)[nH]1", "units": "%", "growth": 118}
{"molecule": "CCOC(=O)c1ccccc1OC(=O)NNc1ccccc1", "units": "%", "growth": 82.1}
{"molecule": "CCOC(Cc1c(N)[nH]c(=S)[nH]c1=O)OCC", "units": "%", "growth": 99.5}
{"molecule": "CCOC(=O)c1c(C)nc(C)c(C(=O)OCC)c1-c1cccnc1", "units": "%", "growth": 111}
{"molecule": "COc1ccc(-c2c(N)noc2-c2cc(OC)c3c(c2)OCCO3)cc1", "units": "%", "growth": 81.2}
